molecular target: CB1 receptor; construct: IC50 [nM]; radioligand [3H]-CP55940; assay: In-vitro determination of affinity to CB1/CB2-receptors (radioligand [3H]-CP55940 binding); settings: binding data per pharmacological methods part I, table does not say whether human transfected receptor or rat cerebellum
parameter: pIC50
Give bare numbers, as −log10 of the molar value.

Fill blank: measured pIC50 of the compound O=C(NN1CCCCCCC1)C1=NN(c2ccc(Cl)cc2Cl)C(c2ccc(Br)cc2)C1 (stereo not shown) [Example 146] is ____.
7.92

Value lookup for pIC50; key = COc1ccc(C2CC(C(=O)NN3CC4CCCC4C3)=NN2c2ccc(Cl)cc2Cl)cc1.Cl (stereo not shown) [Example 109A]
7.82

// returns reported pIC50 for input O=C(NN1CC2CCCC2C1)C1=NN(c2ccc(Cl)cc2Cl)C(c2ccc(Br)cc2)C1 (stereo not shown) [Example 63]
7.60

# query: pIC50 of entry O=C(C1=NN(c2ccc(Cl)cc2Cl)C(c2ccc(Cl)cc2)C1)N1CC=CCC1 (stereo not shown) [Example 74]
6.10

Look up pIC50 for this compound: O=C(C1=NN(c2ccc(Cl)cc2Cl)C(c2ccc(Cl)cc2)C1)N1CCN(Cc2ccccc2)CC1 (stereo not shown) [Example 52]
6.60

Provide each entry's pIC50 from the list below.
1. O=C(NC1CCCCCC1)C1=NN(c2ccc(Cl)cc2Cl)C(c2ccc(Br)cc2)C1 (stereo not shown) [Example 130]
2. CC1CCCC(C)N1NC(=O)C1=NN(c2ccc(Cl)cc2Cl)C(c2ccc(Cl)cc2)C1 (stereo not shown) [Example 12]
3. COc1ccc(C2CC(C(=O)NN3CCCCC3)=NN2c2ccc(Cl)cc2Cl)cc1 (stereo not shown) [Example 106A]
4. COc1ccc(C2CC(C(=O)NN3CCCCCC3)=NN2c2ccc(Cl)cc2Cl)cc1 (stereo not shown) [Example 114A]
5. Cl.O=C(NN1CCc2ccccc21)C1=NN(c2ccc(Cl)cc2Cl)C(c2ccc(Br)cc2)C1 (stereo not shown) [Example 66, hydrochloride]
6. O=C(NCC1CCCCC1)C1=NN(c2ccc(Cl)cc2Cl)C(c2ccc(Cl)cc2)C1 (stereo not shown) [Example 32]

[7.28, 6.60, 7.70, 7.74, 7.00, 7.08]
